System: NCI-H1792
measurement description: relative viability (nuclei count vs DMSO), 5 days (fraction); higher = more cells survive
cond: first compound 0.003162 µM

compound | relative viability
Cc1cn(-c2cc(NC(=O)c3ccc(C)c(Nc4nccc(-c5cccnc5)n4)c3)cc(C(F)(F)F)c2)cn1 [Nilotinib] + Cc1nc(Nc2ncc(C(=O)Nc3c(C)cccc3Cl)s2)cc(N2CCN(CCO)CC2)n1 [Dasatinib] (partner 0.075 µM) | 0.591
Cc1cn(-c2cc(NC(=O)c3ccc(C)c(Nc4nccc(-c5cccnc5)n4)c3)cc(C(F)(F)F)c2)cn1 [Nilotinib] + CCNC(=O)c1noc(-c2cc(C(C)C)c(O)cc2O)c1-c1ccc(CN2CCOCC2)cc1 [Luminespib] (partner 0.01 µM) | 0.417
Cc1cn(-c2cc(NC(=O)c3ccc(C)c(Nc4nccc(-c5cccnc5)n4)c3)cc(C(F)(F)F)c2)cn1 [Nilotinib] + O=C(c1cc(Cc2n[nH]c(=O)c3ccccc23)ccc1F)N1CCN(C(=O)C2CC2)CC1 [Olaparib] (partner 8 µM) | 0.535
Cc1cn(-c2cc(NC(=O)c3ccc(C)c(Nc4nccc(-c5cccnc5)n4)c3)cc(C(F)(F)F)c2)cn1 [Nilotinib] + CC(=O)Nc1cccc(-n2c(=O)n(C3CC3)c(=O)c3c(Nc4ccc(I)cc4F)n(C)c(=O)c(C)c32)c1 [Trametinib] (partner 0.02 µM) | 0.491

---

System: NCI-H23
measurement description: relative viability (nuclei count vs DMSO), 5 days (fraction); higher = more cells survive
cond: first compound 0.06325 µM

molecule | relative viability
CCNC(=O)c1noc(-c2cc(C(C)C)c(O)cc2O)c1-c1ccc(CN2CCOCC2)cc1 [Luminespib] + COc1cccc2cc(-c3nc([C@H]4CC[C@H](C(=O)O)CC4)n4ncnc(N)c34)[nH]c12 [OSI-027] (partner 0.5 µM) | 0.133
CCNC(=O)c1noc(-c2cc(C(C)C)c(O)cc2O)c1-c1ccc(CN2CCOCC2)cc1 [Luminespib] + CC(=O)c1c(C)c2cnc(Nc3ccc(N4CCNCC4)cn3)nc2n(C2CCCC2)c1=O [Palbociclib] (partner 0.5 µM) | 0.154
CCNC(=O)c1noc(-c2cc(C(C)C)c(O)cc2O)c1-c1ccc(CN2CCOCC2)cc1 [Luminespib] + CC1(C)CCC(c2ccc(Cl)cc2)=C(CN2CCN(c3ccc(C(=O)NS(=O)(=O)c4ccc(N[C@H](CCN5CCOCC5)CSc5ccccc5)c(S(=O)(=O)C(F)(F)F)c4)cc3)CC2)C1 [Navitoclax] (partner 0.5 µM) | 0.142
CCNC(=O)c1noc(-c2cc(C(C)C)c(O)cc2O)c1-c1ccc(CN2CCOCC2)cc1 [Luminespib] + Nc1nc2[nH]cc(CCc3ccc(C(=O)N[C@@H](CCC(=O)O)C(=O)O)cc3)c2c(=O)[nH]1 [Pemetrexed] (partner 0.2 µM) | 0.139

---

Test system: NCI-H1792
measurement description: relative viability (nuclei count vs DMSO), 5 days (fraction); higher = more cells survive
cond: first compound 20 µM
Recorded relative viability, one value per entry.

molecule | relative viability
Cc1csc(=NC2CCCCC2)n1/N=C/c1ccc(O)c(O)c1O [MIM1] + Nc1nc2[nH]cc(CCc3ccc(C(=O)N[C@@H](CCC(=O)O)C(=O)O)cc3)c2c(=O)[nH]1 [Pemetrexed] (partner 0.2 µM) | 0.685
Cc1csc(=NC2CCCCC2)n1/N=C/c1ccc(O)c(O)c1O [MIM1] + C[C@]1(O)C[C@@H](c2nc(-c3ccc4ccc(-c5ccccc5)nc4c3)c3c(N)nccn32)C1 [Linsitinib] (partner 1 µM) | 0.503
Cc1csc(=NC2CCCCC2)n1/N=C/c1ccc(O)c(O)c1O [MIM1] + CC(C)C[C@H](NC(=O)[C@H](Cc1ccccc1)NC(=O)c1cnccn1)B(O)O [Bortezomib] (partner 0.002 µM) | 0.851
Cc1csc(=NC2CCCCC2)n1/N=C/c1ccc(O)c(O)c1O [MIM1] + CS(=O)(=O)N1CCN(Cc2cc3nc(-c4cccc5[nH]ncc45)nc(N4CCOCC4)c3s2)CC1 [Pictilisib] (partner 1 µM) | 0.221

Cited source for all entries: the supplement of paper PMC10307832
